Experiment: Metabolic stability in human hepatic microsome
Type: in vitro ADME
Conditions: microsomes, pH 7.4; human hepatic microsome, NADPH(+); read-out: CL NADPH(+)
Starred links: 1 amine or outer side, 2 acyl side, 3 side chain; linkers in the order of their positions; H or OH if unused. Positions of bridges follow the written chain, without caps; N, C: chain ends. Non-standard residues stand in square brackets, D forms with d. Residues, ends and D or L forms follow the SMILES beside them. *: point of attachment. NMeF = CN[C@@H](Cc1ccccc1)C(=O)O; NMeGABA = CN(CCCC(=O)[*:2])[*:1]; NMeL = CN[C@@H](CC(C)C)C(=O)O; NMeV = CN[C@H](C(=O)O)C(C)C; NMeA = CN[C@@H](C)C(=O)O; Piperidide = C1CCN(*)CC1; Sar = CNCC(=O)O; tBu = CC(C)(C)*
Kindly supply the reported microsomal CLint at 1 uM values for the records listed here.
Numbers only, in µL/min/mg.

| COMPOUND | DISPLAY UNIT | MEASURED NUMBER |
| --- | --- | --- |
| CC(C)C[C@@H]1NC(=O)[C@H]([C@@H](C)O)NC(=O)[C@H](CC(C)C)N(C)C(=O)CN(C)C(=O)[C@H](Cc2ccccc2)N(C)C(=O)[C@H](CC(C)C)NC(=O)C[C@@H](C(=O)N2CCCCC2)NC1=O [DP-723] (L[NMeF][Sar][NMeL]TLD-Piperidide; lactam N-7) | µL/min/mg | 154 |
| CC(C)C[C@H]1C(=O)N(C)[C@@H](Cc2ccccc2)C(=O)NCC(=O)N[C@H](C(=O)N2CCCCC2)CC(=O)N(C)CCCC(=O)N[C@@H]([C@@H](C)O)C(=O)N(C)[C@@H](C)C(=O)N(C)[C@@H](Cc2ccccc2)C(=O)N[C@@H](COC(C)(C)C)C(=O)N1C [DP-129] ([NMeGABA]T[NMeA][NMeF]S(tBu)[NMeL][NMeF]GD-Piperidide; lactam N-9) | µL/min/mg | 120 |

API: the following record is the query input.
Tell me the measured microsomal CLint at 1 uM of CC[C@H](C)[C@@H]1NC(=O)[C@H](Cc2ccccc2)N(C)C(=O)[C@H](C)N(C)C(=O)[C@H]([C@@H](C)O)NC(=O)[C@H](CC(C)C)N(C)C(=O)[C@H](C)N(C)C(=O)C[C@@H](C(=O)N(C)[C@@H](Cc2ccccc2)C(=O)N[C@@H](C)C(=O)N2CCCCC2)NC(=O)[C@H](C(C)C)N(C)C(=O)[C@H](CC(C)C)N(C)C(=O)CN(C)C1=O [DP-492] ([NMeA][NMeL]T[NMeA][NMeF]I[Sar][NMeL][NMeV]D[NMeF]A-Piperidide; lactam N-10) , please.
61

---

Please provide measured Papp at 18 hours, 50 µM for the entries that follow.
Experiment: PAMPA (parallel artificial membrane permeability assay)
Assay type: in vitro ADME
Conditions: PAMPA; membrane permeation rate (Pe); 50 mM MOPSO buffer pH 6.5 with 5.0% glycocholic acid, 37° C., 18 hours; read-out: iPAMPA Pe
Positions of bridges follow the written chain, without caps; N, C: chain ends. Non-standard residues stand in square brackets, D forms with d. Residues, ends and D or L forms follow the SMILES beside them. *: point of attachment. NMePhe(3-Cl) = CN[C@@H](Cc1cccc(Cl)c1)C(=O)O; NMeF = CN[C@@H](Cc1ccccc1)C(=O)O; NMeL = CN[C@@H](CC(C)C)C(=O)O; NMeV = CN[C@H](C(=O)O)C(C)C; NMeA = CN[C@@H](C)C(=O)O; Piperidide = C1CCN(*)CC1; dNMeA = CN[C@H](C)C(=O)O
Give bare numbers, in ×10⁻⁶ cm/s.

Previously resolved entries follow.
| MOLECULE | DISPLAY UNIT | Papp at 18 hours, 50 µM |
| --- | --- | --- |
| CC(C)C[C@H]1C(=O)N[C@H](C(=O)N(C)[C@@H](Cc2ccccc2)C(=O)N[C@@H](C)C(=O)N2CCCCC2)CC(=O)N[C@H](C)C(=O)N(C)[C@@H](Cc2ccccc2)C(=O)N(C)[C@@H](CC(C)C)C(=O)N[C@@H]([C@@H](C)O)C(=O)N(C)[C@@H](C)C(=O)N(C)[C@@H](CC(C)C)C(=O)N[C@@H](C(C)C)C(=O)N1C [DP-197] ([dA][NMeF][NMeL]T[NMeA][NMeL]V[NMeL]D[NMeF]A-Piperidide; lactam N-9) | ×10⁻⁶ cm/s | 27 |
| CC(C)C[C@H]1C(=O)N[C@@H](C)C(=O)N(C)[C@@H](Cc2ccccc2)C(=O)N(C)[C@@H](C)C(=O)N(C)[C@@H](Cc2ccccc2)C(=O)N[C@H](C(=O)N(C)[C@@H](Cc2ccccc2)C(=O)N[C@@H](C)C(=O)N2CCCCC2)CC(=O)N(C)[C@H](C)C(=O)N(C)[C@@H](C)C(=O)N(C)[C@@H](CC(C)C)C(=O)N[C@@H]([C@@H](C)O)C(=O)N(C)[C@@H](C)C(=O)N1C [DP-347] ([dNMeA][NMeA][NMeL]T[NMeA][NMeL]A[NMeF][NMeA][NMeF]D[NMeF]A-Piperidide; lactam N-11) | ×10⁻⁶ cm/s | 25 |
| CC(C)C[C@H]1C(=O)N[C@@H](C)C(=O)N(C)[C@@H](Cc2ccccc2)C(=O)N(C)[C@@H](C(C)C)C(=O)N[C@@H](Cc2ccccc2)C(=O)N(C)[C@@H](C)C(=O)N(C)[C@@H](C)C(=O)N[C@H](C(=O)N2CCCCC2)CC(=O)N(C)[C@H](C)C(=O)N[C@@H]([C@@H](C)O)C(=O)N(C)[C@@H](C)C(=O)N1C [DP-474] ([dNMeA]T[NMeA][NMeL]A[NMeF][NMeV]F[NMeA][NMeA]D-Piperidide; lactam N-11) | ×10⁻⁶ cm/s | 13 |

Turning to the following molecule.
Param item = CC[C@H](C)[C@@H]1NC(=O)[C@H](CC(C)C)NC(=O)[C@H](C)N(C)C(=O)[C@H](CC(C)C)N(C)C(=O)[C@H](CC(C)C)NC(=O)[C@H](Cc2cccc(Cl)c2)N(C)C(=O)[C@H]([C@@H](C)O)NC(=O)[C@H](C)N(C)C(=O)[C@H](C(C)C)NC(=O)[C@H](C)N(C)C(=O)C[C@@H](C(=O)N(C)[C@@H](Cc2ccccc2)C(=O)N(C)[C@@H](CC(C)C)C(=O)N[C@H](C(=O)N2CCCCC2)[C@@H](C)CC)NC1=O [DP-950] ([NMeA]V[NMeA]T[NMePhe(3-Cl)]L[NMeL][NMeA]LID[NMeF][NMeL]I-Piperidide; lactam N-11) ; retrieve measured Papp at 18 hours, 50 µM.
0.1

---

Test: PAMPA (parallel artificial membrane permeability assay)
Format: in vitro ADME
Details: PAMPA; membrane permeation rate (Pe); 50 mM MOPSO buffer pH 6.5 with 5.0% glycocholic acid, 37° C., 18 hours; read-out: iPAMPA Pe
Starred links: 1 amine or outer side, 2 acyl side, 3 side chain; linkers in the order of their positions; H or OH if unused. Positions of bridges follow the written chain, without caps; N, C: chain ends. Non-standard residues stand in square brackets, D forms with d. Residues, ends and D or L forms follow the SMILES beside them. *: point of attachment. NMeF = CN[C@@H](Cc1ccccc1)C(=O)O; NMeβAla = CN(CCC(=O)[*:2])[*:1]; NMeL = CN[C@@H](CC(C)C)C(=O)O; NMeV = CN[C@H](C(=O)O)C(C)C; NMeA = CN[C@@H](C)C(=O)O; Piperidide = C1CCN(*)CC1; Sar = CNCC(=O)O
VALUE KIND: Papp at 18 hours, 50 µM (×10⁻⁶ cm/s)
Answers are plain numbers, in ×10⁻⁶ cm/s.

Known Papp at 18 hours, 50 µM results, listed for orientation:
| MOLECULE | DISPLAY UNIT | Papp at 18 hours, 50 µM |
| --- | --- | --- |
| CC(C)C[C@H]1C(=O)N(C)[C@@H](C(C)C)C(=O)N(C)[C@@H](C)C(=O)N[C@H](C(=O)N2CCCCC2)CC(=O)N(C)CCC(=O)N[C@@H]([C@@H](C)O)C(=O)N[C@@H](C)C(=O)N(C)[C@@H](C)C(=O)N(C)[C@@H](Cc2ccccc2)C(=O)N(C)[C@@H](CC(C)C)C(=O)N[C@@H](Cc2ccccc2)C(=O)N1C [DP-473] ([NMeβAla]TA[NMeA][NMeF][NMeL]F[NMeL][NMeV][NMeA]D-Piperidide; lactam N-11) | ×10⁻⁶ cm/s | 14 |
| CC[C@H](C)[C@@H]1NC(=O)[C@H](C)N(C)C(=O)[C@H]([C@@H](C)O)NC(=O)[C@H](CC(C)C)N(C)C(=O)[C@H](Cc2ccccc2)NC(=O)[C@H](C(C)C)N(C)C(=O)[C@H](CC(C)C)N(C)C(=O)[C@H](C)N(C)C(=O)C[C@@H](C(=O)N(C)[C@@H](Cc2ccccc2)C(=O)N[C@@H](C)C(=O)N2CCCCC2)NC(=O)[C@H](CC(C)C)N(C)C1=O [DP-376] ([NMeA][NMeL][NMeV]F[NMeL]T[NMeA]I[NMeL]D[NMeF]A-Piperidide; lactam N-10) | ×10⁻⁶ cm/s | 29 |
| CC(C)C[C@@H]1NC(=O)[C@H](CC(C)C)N(C)C(=O)[C@@H](C(C)C)NC(=O)C[C@@H](C(=O)N2CCCCC2)NC(=O)[C@H](CC(C)C)N(C)C(=O)[C@H](Cc2ccccc2)N(C)C(=O)[C@H](C)N(C)C(=O)[C@H]([C@@H](C)O)NC(=O)[C@H](Cc2ccccc2)N(C)C1=O [DP-264] ([dV][NMeL]L[NMeF]T[NMeA][NMeF][NMeL]D-Piperidide; lactam N-9) | ×10⁻⁶ cm/s | 37 |

# next molecule below
Recorded Papp at 18 hours, 50 µM of CC(C)C[C@H]1C(=O)N[C@@H](C(C)C)C(=O)N[C@H](C(=O)N(C)[C@@H](Cc2ccccc2)C(=O)N[C@@H](C)C(=O)N2CCCCC2)CC(=O)N[C@H](C)C(=O)N(C)[C@@H](C)C(=O)N(C)[C@@H](Cc2ccccc2)C(=O)N(C)[C@@H](CC(C)C)C(=O)N[C@@H]([C@@H](C)O)C(=O)N(C)CC(=O)N1C [DP-380] ([dA][NMeA][NMeF][NMeL]T[Sar][NMeL]VD[NMeF]A-Piperidide; lactam N-9) , please.
17
